- System: DMS-114
- protocol summary: NCI tumour cell line growth inhibition, 48 h
Calls of active or inactive are those of the source. Rule as the data show it: active = GI50 up to about 1.1 µM and inactive = higher.
Possible outcomes: active, inactive

[
  {
    "molecule": "CCOC(=O)c1ccc(/N=C/c2ccc(N(CCC#N)S(=O)(=O)c3ccccc3)cc2C)cc1",
    "class": "inactive"
  },
  {
    "molecule": "CC1CC(C[N+](=O)[O-])CC2(C1)OCCO2 (centres undefined)",
    "class": "inactive"
  },
  {
    "molecule": "Cc1cc2c(cc1C)[n+]([O-])c(C(=O)CC(=O)C(=O)Nc1ccccc1C(C)C)c(C)[n+]2[O-]",
    "class": "inactive"
  },
  {
    "molecule": "c1ccc2c3c([nH]c2c1)C1C2CCCCN2C(c2ccncc2)N1CC3 (centres undefined)",
    "class": "inactive"
  },
  {
    "molecule": "COc1ccc2c(c1)O[C@@H]1c3ccc(OC)cc3OC[C@H]21",
    "class": "inactive"
  },
  {
    "molecule": "Cc1cc(C)c(-n2c(-c3ccccc3)cs/c2=N\\N=C2C=C(C(C)(C)C)C(=O)C(C(C)(C)C)=C2)c(C)c1",
    "class": "inactive"
  },
  {
    "molecule": "CCN(CC)CCC(=O)N1CCc2c([nH]c3ccccc23)C1c1cccnc1 (centres undefined)",
    "class": "inactive"
  },
  {
    "molecule": "CC[C@@]1(O)C(=O)OCc2c1cc1n(c2=O)Cc2cc3ccccc3nc2-1 [CAMPTOTHECIN]",
    "class": "active"
  },
  {
    "molecule": "N#Cc1ccc(Cc2ccccn2)cc1Cl",
    "class": "inactive"
  },
  {
    "molecule": "CC[C@H]1CC(=O)c2c(cc3c(c2O)C(=O)c2ccccc2C3=O)[C@@]1(C#N)C(=O)OC(C)(C)C",
    "class": "inactive"
  },
  {
    "molecule": "C[N+](C)(C)CC(=O)NC(=O)N/N=C\\C(CC#N)CN(Cc1ccccc1)Cc1ccccc1 (centres undefined)",
    "class": "inactive"
  },
  {
    "molecule": "O=C1NC(O)CCN1C1OC(CO)C(O)C1O (centres undefined)",
    "class": "inactive"
  },
  {
    "molecule": "CCn1c(C)nn2c(=O)c3ccccc3nc2c1=O",
    "class": "inactive"
  },
  {
    "molecule": "CCCC(=O)Oc1ccc(/C=N/NC(N)=S)nc1",
    "class": "inactive"
  },
  {
    "molecule": "O=C1[C@@H]2C3c4ccccc4C([C@@H]2C(=O)N1c1ccccc1)S3(=O)=O",
    "class": "inactive"
  },
  {
    "molecule": "O=C1[C@@H]2C(c3ccccc3Br)=NO[C@@H]2C(=O)N1c1ccc(Cc2ccc(N3C(=O)[C@H]4C(c5ccccc5Br)=NO[C@H]4C3=O)cc2)cc1",
    "class": "inactive"
  },
  {
    "molecule": "CN(CCN1C(=O)c2cc([N+](=O)[O-])cc3cc([N+](=O)[O-])cc(c23)C1=O)CCN1C(=O)c2cc([N+](=O)[O-])cc3cc([N+](=O)[O-])cc(c23)C1=O",
    "class": "active"
  },
  {
    "molecule": "OC1CCOc2ccccc21 (centres undefined)",
    "class": "inactive"
  },
  {
    "molecule": "CCOC(=O)C12CCCC1(O)N(NC(N)=O)C(C)=C2C(=O)OC (centres undefined)",
    "class": "inactive"
  }
]
